# assay-text: Hepatocyte stability assay, human
# Format: in vitro ADME
# assay-setup: cryopreserved hepatocytes; Human hepatocytes, 10 μM compound, 0.5×10^6 cells/mL; read-out: T½
Reported half-life at 10 μM is given for each of the following compounds.
assay-readout: half-life at 10 μM (h)

INSERT INTO measurements (compound, unit_of_measure, experimental_value) VALUES
  ('C=C(Cc1nc(-c2ncc(OCCCC)cc2Cl)no1)C(=O)O', 'h', 3.02),
  ('C=C(Cc1ccccc1Cl)C(=O)O [2-(2-chlorobenzyl)acrylic acid, reference compound]', 'h', 0.983);

----------
Collected NRF2 activation Emax values appear next to each entry.
# Tested on: NRF2
# assay-text: DiscoverX PathHunter NRF2 translocation assay +/-GSH in U2OS cells
# Type: cell-based
# assay-setup: +GSH, normalised to DMF high control
assay-readout: NRF2 activation Emax (%)

INSERT INTO results (compound, unit_of_measure, experimental_value) VALUES
  ('C=C(Cc1nc(-c2ccc(OCCCC)nc2)no1)C(=O)O [Example 1]', '%', 130),
  ('C=C(Cc1ccccc1Cl)C(=O)O [2-(2-chlorobenzyl)acrylic acid, reference compound]', '%', 9),
  ('C=C(Cc1nc(-c2ncc(OCCCC)cc2Cl)no1)C(=O)O [Example 3]', '%', 78.58),
  ('C=C(CC(=O)OCCCCCCCC)C(=O)O [4-octyl itaconate, reference compound]', '%', 148),
  ('C=C(Cc1nc(-c2ncc(Oc3ccc(F)cc3)cc2Cl)no1)C(=O)O [Example 4]', '%', 145);

----------
# System: IL-6
# assay-text: THP-1 AlphaLISA IL-6 cytokine inhibition assay (differentiated THP-1 cells, LPS then nigericin)
# Assay type: cell-based
# assay-setup: THP-1 cell, PMA-differentiated, LPS 24 hr + nigericin 1 hour
pIC50: −log10 of the molar value.
assay-readout: pIC50

INSERT INTO assay_data (compound, experimental_system, experimental_value) VALUES
  ('C=C(CC(=O)OCCCCCCCC)C(=O)O [4-octyl itaconate, reference compound]', 'IL-6', 4.72);
